# TESTED_TARGET: Chk1 (Homo sapiens)
# Construct: purchased Upstate Biotechnology
# Sequence (O14757 whole entry): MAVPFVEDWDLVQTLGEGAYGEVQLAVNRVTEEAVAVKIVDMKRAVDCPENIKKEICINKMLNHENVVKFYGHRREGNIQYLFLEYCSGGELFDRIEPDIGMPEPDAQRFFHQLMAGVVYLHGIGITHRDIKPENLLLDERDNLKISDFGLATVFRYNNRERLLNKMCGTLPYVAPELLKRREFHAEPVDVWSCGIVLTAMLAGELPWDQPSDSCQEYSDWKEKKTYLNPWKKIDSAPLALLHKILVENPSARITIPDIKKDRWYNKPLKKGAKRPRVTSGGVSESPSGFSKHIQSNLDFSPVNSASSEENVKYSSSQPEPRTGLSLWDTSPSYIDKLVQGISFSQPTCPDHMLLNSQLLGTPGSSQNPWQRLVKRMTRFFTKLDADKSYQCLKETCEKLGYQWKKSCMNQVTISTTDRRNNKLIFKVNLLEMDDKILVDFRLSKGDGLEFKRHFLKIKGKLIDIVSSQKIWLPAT
# METHOD_NOTES: Chk1 kinase assay: incorporation of γ-33P ATP into immobilized myelin basic protein
# Assay type: biochemical
# PROTOCOL_CONDITIONS: Table 11; Chk1 only; read-out: Chk1 IC50
pIC50: −log10 of the molar value.
Kindly supply the reported pIC50 values for the records listed here.

Known results for compounds:
compound="CSc1ccc(CNC(=O)c2cccc(-c3cnc(N)c(C(=O)N[C@H]4CCNC4)n3)c2)cc1 [Example 747]" observed_value="> 7.30"
compound="CC(C)(C)OC(=O)N1CCCC(NC(=O)c2nc(-c3cccc(C(=O)N[C@@H]4c5ccccc5C[C@@H]4O)c3)cnc2N)CC1 (stereo partly shown) [Example 781]" observed_value="6.00 to 7.30"
compound="Nc1ncc(-c2cccc(CO)c2)nc1-c1nc(C2CCCCN2)n[nH]1 (stereo not shown) [Example 698]" observed_value="≤ 5.00"

Consider now this further compound.
Looking for the measured pIC50 of CC(C)(C)OC(=O)N1CC[C@H](NC(=O)c2nc(-c3cccc(C(=O)NCc4ccc(OC(F)(F)F)cc4)c3)cnc2N)C1 [Example 739] , can you help? 6.00 to 7.30
